# System: biotinyl-Ile-oxazolone
# TEST: self-aminoacylation, catalytic enhancement (BIO) (fold over background); higher = more active; k-Seq, kA / k0A0; sequences stand for … in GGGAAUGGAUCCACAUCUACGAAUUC…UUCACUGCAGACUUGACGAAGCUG
This sample holds only a part of the variants without activity.
OBSERVED_PROPERTY: self-aminoacylation

# example entries with known answers
Exercise: Name the recorded self-aminoacylation of the sequence listed here: AUUACCCUGGUCAUCCAGUGA [Fam2.1 aminoacylation ribozyme variant]
Key: 3.41

Exercise: Name the recorded self-aminoacylation of the sequence listed here: CCACACCUCAAACAAUCGGUC [Fam1B.1 aminoacylation ribozyme variant]
Key: 1.24

Others:
Exercise: Name the recorded self-aminoacylation of the sequence listed here: AUUCGCCUAGGUCAUCGGCUG [Fam2.2 aminoacylation ribozyme variant]
Key: 2.08

Exercise: Name the recorded self-aminoacylation of the sequence listed here: AAGUUUGCUACUAGUCGCAAG [Fam3.1 aminoacylation ribozyme variant]
Key: 0.824

Exercise: Name the recorded self-aminoacylation of the sequence listed here: AUUCAGCUAGGUCACCGGGUG [Fam2.2 aminoacylation ribozyme variant]
Key: 4.69

Exercise: Name the recorded self-aminoacylation of the sequence listed here: AUCACCCUGGUCAUCGAGCGA [Fam2.1 aminoacylation ribozyme variant]
Key: 2.01

Exercise: Name the recorded self-aminoacylation of the sequence listed here: AUUACACCGGUCAUCGAGUGA [Fam2.1 aminoacylation ribozyme variant]
Key: 2.95

Exercise: Name the recorded self-aminoacylation of the sequence listed here: AUUCACCUAGGUGACCGGGUG [Fam2.2 aminoacylation ribozyme variant]
Key: 4.8

Exercise: Name the recorded self-aminoacylation of the sequence listed here: AUUGACCUAGGUCAUCCGGUG [Fam2.2 aminoacylation ribozyme variant]
Key: 3.31

----------
Catalogue of sequences with associated self-aminoacylation
# System: biotinyl-Leu-oxazolone
# TEST: self-aminoacylation, catalytic enhancement (BLO) (fold over background); higher = more active; k-Seq, kA / k0A0; sequences stand for … in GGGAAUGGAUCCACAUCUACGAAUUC…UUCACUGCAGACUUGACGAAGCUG
Fewer inactive variants are shown than the library holds.
Output: the number by itself.

Exercise: Name the recorded self-aminoacylation of the sequence listed here: AUUCACCUGGGUCAGCGGGUG [Fam2.2 aminoacylation ribozyme variant]
Key: 6.66

Others:
Exercise: Name the recorded self-aminoacylation of the sequence listed here: CUACUUCAACCUAUCGGUCUG [Fam1A.1 aminoacylation ribozyme variant]
Key: 0.79

Exercise: Name the recorded self-aminoacylation of the sequence listed here: AUUCGCCUAGGUCAACGGGUG [Fam2.2 aminoacylation ribozyme variant]
Key: 6.03

Exercise: Name the recorded self-aminoacylation of the sequence listed here: AUUAGCCUGGUCAUCGUGUGA [Fam2.1 aminoacylation ribozyme variant]
Key: 3.17

Exercise: Name the recorded self-aminoacylation of the sequence listed here: CUUACCCUAGUCAUCGAGUGA [Fam2.1 aminoacylation ribozyme variant]
Key: 5.38

----------
# Test system: biotinyl-Ile-oxazolone
# TEST: self-aminoacylation, catalytic enhancement (BIO) (fold over background); higher = more active; k-Seq, kA / k0A0; sequences stand for … in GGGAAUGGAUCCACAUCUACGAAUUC…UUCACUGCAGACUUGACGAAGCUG
Fewer inactive variants are shown than the library holds.
OBSERVED_PROPERTY: self-aminoacylation
Output: the number by itself.

Exercise: Provide self-aminoacylation, tested on biotinyl-Ile-oxazolone, for AGUACCCUGGUCAUCGAGUGG [Fam2.1 aminoacylation ribozyme variant] .
Key: 2.26

Please look at the following sequence next.
Exercise: Provide self-aminoacylation, tested on biotinyl-Ile-oxazolone, for CUACUUCAAACAUUCGGUGUG [Fam1A.1 aminoacylation ribozyme variant] .
Key: 1.4
